Entry source: paper PMC5540273

Test system: INSRR
Conditions: concentration: 1 μM, replicates: in singlicate; n = 1
Recorded %Inh by entry
// return the numeric value with its unit appended

# value lookup — system INSRR, readout %Inh, item C[C@@H]1CCN(C(=O)CO)C[C@@H]1N(C)c1ncnc2[nH]ccc12;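 further: KINOMEscan kinase panel screen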
9%

Try Nc1nc(-c2ccc3c(N)n[nH]c3c2)cc(N2CCCCC2)n1 next.
0%

Now this one: COc1ccc(Nc2nccc(N3CCC(NC(=O)Nc4ccc5c(c4)OCO5)C3)n2)cc1 (centres unmarked)
0%

Now consider CCC(CC)(CC)n1cnc2c(N)ncnc21 .
4%

Repeat for the following molecule: COc1ccc(NC(=O)c2ccc(-c3cc(-c4nnc(C)o4)ccc3C)cc2)cc1
0%

Same lookup for Cc1ccc(O)cc1Nc1cc(C(F)(F)F)nc2ccc(-c3ccncc3)cc12 , please.
0%
